tested on: Escherichia coli; assay: Antibacterial activity against mucosa-associated Escherichia coli isolate HM428 isolated from patient with irritable bowel syndrome or sporadic polyps after 24 hrs by Etest antibiotic concentration gradient method; assay type: functional; conditions: isolate HM428, 24 h
Measure: MIC

Examples with answers:
# Smiles code, Assay target, MIC
data = [
    ("CC[C@H]1OC(=O)[C@H](C)[C@@H](O[C@H]2C[C@@](C)(OC)[C@@H](O)[C@H](C)O2)[C@H](C)[C@@H](O[C@@H]2O[C@H](C)C[C@H](N(C)C)[C@H]2O)[C@](C)(OC)C[C@@H](C)C(=O)[C@H](C)[C@@H](O)[C@]1(C)O", "Escherichia coli", "≥ 16 µg/mL"),
    ("CN(C)[C@@H]1C(O)=C(C(N)=O)C(=O)[C@@]2(O)C(O)=C3C(=O)c4c(O)cccc4[C@@](C)(O)[C@H]3C[C@@H]12", "Escherichia coli", "≤ 4 µg/mL"),
    ("O=C(O)c1cn(C2CC2)c2cc(N3CCNCC3)c(F)cc2c1=O", "Escherichia coli", "≤ 1 µg/mL"),
    ("CC[C@H]1OC(=O)[C@H](C)[C@@H](O[C@H]2C[C@@](C)(OC)[C@@H](O)[C@H](C)O2)[C@H](C)[C@@H](O[C@@H]2O[C@H](C)C[C@H](N(C)C)[C@H]2O)[C@](C)(O)C[C@@H](C)CN(C)[C@H](C)[C@@H](O)[C@]1(C)O", "Escherichia coli", "≤ 2 µg/mL"),
    ("CO[C@H]1/C=C/O[C@@]2(C)Oc3c(C)c(O)c4c(O)c(c(/C=N/N5CCN(C)CC5)c(O)c4c3C2=O)NC(=O)/C(C)=C\\C=C\\[C@H](C)[C@H](O)[C@@H](C)[C@@H](O)[C@@H](C)[C@H](OC(C)=O)[C@@H]1C", "Escherichia coli", "≥ 4 µg/mL"),
]

Consider the compound shown here: COc1cc(Cc2cnc(N)nc2N)cc(OC)c1OC What is its recorded MIC?
≤ 4 µg/mL

---

tested on: Escherichia coli; assay: Antibacterial activity against gentamicin-treated internalized Escherichia coli isolate HM580 in mouse J774A1 cells isolated from colonic mucosal biopsies of patient with Crohn's disease assessed as intracellular killing of bacteria at 10% compound Cmax after 3 hrs; assay type: functional, J774.A1
Listed below: Activity values for each entry.
Provide only the numeric value, understood in %.

Examples with answers:
# Compound, Activity / %
rows = [
    ("O=C(O)c1cn(C2CC2)c2cc(N3CCNCC3)c(F)cc2c1=O [CIPROFLOXACIN]", 90.4),
    ("CO[C@H]1/C=C/O[C@@]2(C)Oc3c(C)c(O)c4c(O)c(c(/C=N/N5CCN(C)CC5)c(O)c4c3C2=O)NC(=O)/C(C)=C\\C=C\\[C@H](C)[C@H](O)[C@@H](C)[C@@H](O)[C@@H](C)[C@H](OC(C)=O)[C@@H]1C [RIFAMPIN]", 35.8),
]

Turning to the following compound.
Consider the compound shown here: Cc1cc(NS(=O)(=O)c2ccc(N)cc2)no1 [SULFAMETHOXAZOLE] What is its recorded Activity?
58.7

---

tested on: Escherichia coli; assay: Antibacterial activity against gentamicin-treated internalized Escherichia coli isolate HM605 in mouse J774A1 cells isolated from colonic mucosal biopsies of patient with Crohn's disease assessed as intracellular killing of bacteria at 10% compound Cmax after 3 hrs; type: functional, J774.A1
Listed below: Activity values for each entry.

Examples with answers:
# Smiles code, Activity
rows = [
    ("Cc1cc(NS(=O)(=O)c2ccc(N)cc2)no1", "39.8%"),
    ("COc1cc(Cc2cnc(N)nc2N)cc(OC)c1OC", "49.1%"),
    ("CN(C)[C@@H]1C(O)=C(C(N)=O)C(=O)[C@@]2(O)C(O)=C3C(=O)c4c(O)cccc4[C@@](C)(O)[C@H]3C[C@@H]12", "44.8%"),
    ("CO[C@H]1/C=C/O[C@@]2(C)Oc3c(C)c(O)c4c(O)c(c(/C=N/N5CCN(C)CC5)c(O)c4c3C2=O)NC(=O)/C(C)=C\\C=C\\[C@H](C)[C@H](O)[C@@H](C)[C@@H](O)[C@@H](C)[C@H](OC(C)=O)[C@@H]1C", "32.6%"),
    ("CC[C@H]1OC(=O)[C@H](C)[C@@H](O[C@H]2C[C@@](C)(OC)[C@@H](O)[C@H](C)O2)[C@H](C)[C@@H](O[C@@H]2O[C@H](C)C[C@H](N(C)C)[C@H]2O)[C@](C)(OC)C[C@@H](C)C(=O)[C@H](C)[C@@H](O)[C@]1(C)O", "33.5%"),
]

Lookup: Activity / Escherichia coli / O=C(O)c1cn(C2CC2)c2cc(N3CCNCC3)c(F)cc2c1=O
86%

Lookup: Activity / Escherichia coli / CC1(C)S[C@@H]2[C@H](NC(=O)[C@H](N)c3ccccc3)C(=O)N2[C@H]1C(=O)O
20.4%
